Assay: Ex vivo biodistribution of [18F]14 and [18F]15
Format: in vivo, Rj:NMRI-Foxn1^nu/nu mice
Settings: mouse, tumor, iv, 0.2 nmol, AR42J xenograft, 60 min post injection, i.v., baseline; read-out: tumor uptake
REPORTED_ENDPOINT: tissue uptake at 1 h
Please append the unit to your numeric answer.

INPUT: Consider the compound C[C@@H](O)[C@@H]1NC(=O)[C@H](CCCCN)NC(=O)[C@@H](Cc2c[nH]c3ccccc23)NC(=O)[C@H](Cc2ccc(O)cc2)NC(=O)[C@@H](NC(=O)[C@@H](Cc2ccccc2)NC(=O)CCOCCOCCOCCOCCON=Cc2ccc(C(=O)NCCOCCOCCOCCNC(=O)OC3CCCc4cnnc(-c5ccc(CC(=O)NCC[N+](C)(C)C[B-](F)(F)F)cc5)c4CC3)cc2)CSSC[C@@H](C(=O)N[C@H](CO)[C@@H](C)O)NC1=O (some centres unmarked) [[^18F]15] and give its measured tissue uptake at 1 h.
OUTPUT: 4.5 %ID/g

INPUT: C[C@@H](O)[C@@H]1NC(=O)[C@H](CCCCN)NC(=O)[C@@H](Cc2c[nH]c3ccccc23)NC(=O)[C@H](Cc2ccc(O)cc2)NC(=O)[C@@H](NC(=O)[C@@H](Cc2ccccc2)NC(=O)CCOCCOCCOCCOCCON=Cc2ccc(CNC(=O)OC3CCCc4cnnc(-c5ccc(CC(=O)NCC[N+](C)(C)C[B-](F)(F)F)cc5)c4CC3)cc2)CSSC[C@@H](C(=O)N[C@H](CO)[C@@H](C)O)NC1=O (some centres unmarked) [[^18F]14] ?
OUTPUT: 3.1 %ID/g

----------
Assay: Ex vivo biodistribution of [18F]14 and [18F]15
Type: in vivo, Rj:NMRI-Foxn1^nu/nu mice
Details: mouse, iv, 0.2 nmol, 60 min post injection, i.v., baseline; read-out: skin
Would you kindly list tissue uptake at 1 h for each of these molecules?
Lab book: enter the figure in %ID/g, no units written.

INPUT: Consider the molecule C[C@@H](O)[C@@H]1NC(=O)[C@H](CCCCN)NC(=O)[C@@H](Cc2c[nH]c3ccccc23)NC(=O)[C@H](Cc2ccc(O)cc2)NC(=O)[C@@H](NC(=O)[C@@H](Cc2ccccc2)NC(=O)CCOCCOCCOCCOCCON=Cc2ccc(C(=O)NCCOCCOCCOCCNC(=O)OC3CCCc4cnnc(-c5ccc(CC(=O)NCC[N+](C)(C)C[B-](F)(F)F)cc5)c4CC3)cc2)CSSC[C@@H](C(=O)N[C@H](CO)[C@@H](C)O)NC1=O (some centres unmarked) [[^18F]15] and give its measured tissue uptake at 1 h.
OUTPUT: 2.4

INPUT: C[C@@H](O)[C@@H]1NC(=O)[C@H](CCCCN)NC(=O)[C@@H](Cc2c[nH]c3ccccc23)NC(=O)[C@H](Cc2ccc(O)cc2)NC(=O)[C@@H](NC(=O)[C@@H](Cc2ccccc2)NC(=O)CCOCCOCCOCCOCCON=Cc2ccc(CNC(=O)OC3CCCc4cnnc(-c5ccc(CC(=O)NCC[N+](C)(C)C[B-](F)(F)F)cc5)c4CC3)cc2)CSSC[C@@H](C(=O)N[C@H](CO)[C@@H](C)O)NC1=O (some centres unmarked) [[^18F]14] ?
OUTPUT: 2.1

----------
Experiment: Ex vivo biodistribution of [18F]14 and [18F]15
Type: in vivo, Rj:NMRI-Foxn1^nu/nu mice
Details: mouse, iv, 0.2 nmol, 60 min post injection, i.v., baseline; read-out: blood
Procedure: [^18F]14 and [^18F]15 in ≤4% ethanol–0.01 M PBS were administered intravenously (1.2 ± 0.0 and 2.0 ± 0.1 MBq, respectively, 0.2 nmol, 150 μL) to AR42J tumor-bearing Rj:NMRI-Foxn1^nu/nu mice. At predetermined time points (t = 30, 60, 120, and 240 min), animals were euthanized with CO2 asphyxiation and cervical dislocation, and then the organs were harvested, washed with water, and blotted dry, following with weighing and γ counting from which the % ID/g in tissues was determined.
Would you kindly list tissue uptake at 1 h for each of these compounds?
Lab book: enter the figure in %ID/g, no units written.

INPUT: Consider the compound C[C@@H](O)[C@@H]1NC(=O)[C@H](CCCCN)NC(=O)[C@@H](Cc2c[nH]c3ccccc23)NC(=O)[C@H](Cc2ccc(O)cc2)NC(=O)[C@@H](NC(=O)[C@@H](Cc2ccccc2)NC(=O)CCOCCOCCOCCOCCON=Cc2ccc(CNC(=O)OC3CCCc4cnnc(-c5ccc(CC(=O)NCC[N+](C)(C)C[B-](F)(F)F)cc5)c4CC3)cc2)CSSC[C@@H](C(=O)N[C@H](CO)[C@@H](C)O)NC1=O (some centres unmarked) [[^18F]14] and give its measured tissue uptake at 1 h.
OUTPUT: 10.2

INPUT: C[C@@H](O)[C@@H]1NC(=O)[C@H](CCCCN)NC(=O)[C@@H](Cc2c[nH]c3ccccc23)NC(=O)[C@H](Cc2ccc(O)cc2)NC(=O)[C@@H](NC(=O)[C@@H](Cc2ccccc2)NC(=O)CCOCCOCCOCCOCCON=Cc2ccc(C(=O)NCCOCCOCCOCCNC(=O)OC3CCCc4cnnc(-c5ccc(CC(=O)NCC[N+](C)(C)C[B-](F)(F)F)cc5)c4CC3)cc2)CSSC[C@@H](C(=O)N[C@H](CO)[C@@H](C)O)NC1=O (some centres unmarked) [[^18F]15] ?
OUTPUT: 9.6
